# assay_notes: Distribution coefficient, logD of the compound
# Format: physicochemical
# measurement_setup: octanol/water
measure_name: logD
No unit in the answer, only the number.

get_value(item= CC1=C(C(=O)OCc2ccccc2)C(c2ccc(-c3ccccc3)cc2)N(Cc2ccc(-c3nnn[nH]3)cc2)C(=S)N1 (stereo unspecified) , readout=logD) returns 4.8

====

# target_under_test: Large T antigen (Simian virus 40)
# assay_notes: Inhibition of ATPase activity of SV40 T antigen expressed in baculovirus at 10 uM by antibody affinity chromatography relative to control
# measurement_setup: Betapolyomavirus macacae
Lab note: compare fold change (FC) against 2. Equal or greater, write condition met. Smaller, write condition not met.

Illustrative cases are given below, each with its answer.
| compound | group |
| --- | --- |
| CC1=C(C(=O)OCc2ccccc2)C(c2ccc(-c3ccccc3)cc2)N(Cc2ccc(-c3nnn[nH]3)cc2)C(=S)N1 (stereo not drawn) | condition met |
| CC1=C(C(=O)OCc2ccccc2)C(c2ccc(-c3ccccc3)cc2)N(Cc2ccc(-c3nnn[nH]3)cc2)C(=O)N1 (stereo not drawn) | condition met |
| CC1=C(C(=O)OCc2ccccc2)C(c2ccc(-c3ccccc3C)cc2)NC(=S)N1Cc1ccc(-c2nnn[nH]2)cc1 (stereo not drawn) | condition met |
| CC1=C(C(=O)OCc2ccccc2)C(c2ccc(-c3ccccc3)cc2)NC(=O)N1CCCCCc1nnn[nH]1 (stereo not drawn) | condition not met |
| CC1=C(C(=O)OCc2ccccc2)C(c2ccc(-c3ccccc3)cc2)NC(=S)N1Cc1ccc(-c2nnn[nH]2)cc1 (stereo not drawn) | condition met |

Q: hey, is fold change (FC) for this one >= 2? CC1=C(C(=O)OCc2ccccc2)C(c2ccc(-c3ccccc3)cc2)NC(=O)N1CCCCCC(=O)O (stereo not drawn)
A: condition not met

Q: hey, is fold change (FC) for this one >= 2? CC1=C(C(=O)OCc2ccccc2)C(c2ccc(-c3ccccc3)cc2)N(CCCCCC(=O)O)C(=S)N1 (stereo not drawn)
A: condition not met

Q: hey, is fold change (FC) for this one >= 2? CC1=C(C(=O)OCc2ccccc2)C(c2ccc(-c3ccccc3)cc2)NC(=S)N1CCCCCc1nnn[nH]1 (stereo not drawn)
A: condition met
